ATTRIBUTE MEASURED: melting point

> print(dat)
                                    compound  attribute.measured  endpoint.result
 1  COc1ccc2cc([C@H](C)C(=O)OCC(=O)N(C)CC(=O)OC(C)(C)C)ccc2c1       melting point    103 to 104 °C
 2  CCOC(=O)C1=C(C)NC(OC)=NC1c1cccc([N+](=O)[O-])c1 (stereo not given)       melting point    101 to 103 °C
 3  CC1COc2c(N3CC(N)C(C(F)F)C3)c(F)cc3c(=O)c(C(=O)O)cn1c23 (stereo not given)       melting point    247 to 252 °C
 4    O=C(NNC(=O)c1ncnc2[nH]ccc12)OCc1ccccc1       melting point    187 to 188 °C
 5        Cc1csc2c(CSc3nc4ccccc4[nH]3)nccc12       melting point    160 to 162 °C
 6  COc1cc(-c2cc(O)c(SCc3ccccc3)c(=O)o2)cc(OC)c1OC       melting point    156 to 157 °C
 7               Cn1ncc2c(=O)n3c(nc21)SCCCC3       melting point           157 °C
 8  CS(=O)(=O)Nc1c(O)ccc2c1CCCC2C1=NCCN1 (stereo not given)       melting point    263 to 265 °C
 9  COCCc1cc(N2CCNCC2)n2nc(SC)c(S(=O)(=O)c3ccccc3)c2n1       melting point    170 to 171 °C
10  CN(CCc1ccc([N+](=O)[O-])cc1)Cc1nc2ccc([N+](=O)[O-])cc2o1       melting point    69 to 69.5 °C
11                Cc1ccsc1C(=O)C[N+](=O)[O-]       melting point      59 to 61 °C
12  NCC1Cc2cc(-c3ccccc3)cc(-c3cccc(F)c3)c2O1 (stereo not given)       melting point         > 250 °C
13      COC(=O)NNc1cc(C)c(-c2ccc(C#N)cc2)nn1       melting point    191 to 192 °C
14   CC(C)(C)OC(=O)NCCNC(=O)c1ncsc1-c1ccccc1       melting point    139 to 140 °C
15  CCCCCS(=O)(=O)NC(=O)/C=C/c1ccc(OCCOC)cc1OCC1CC1       melting point  64.8 to 66.3 °C
16   CCN(CC)CCN1CCN(CCCN2CCCCC2)C1=C(C#N)C#N       melting point      78 to 80 °C
17  COC(c1ccccc1Cl)c1cc(Cl)ccc1-c1c(C(=O)O)cnn1C (stereo not given)       melting point    210 to 213 °C
18  CC(C)(C)[Si](OC1CCC(O)C1COC(c1ccccc1)(c1ccccc1)c1ccccc1)(c1ccccc1)c1ccccc1 (stereo not given)       melting point    95.6 to 97 °C
19  COc1ccccc1Oc1c(Cl)ncnc1NS(=O)(=O)c1ccc(C(C)(C)C)cc1       melting point           152 °C
20  O=C1N(Cc2ccc3ncnn3c2)c2ccccc2C12COc1cc3c(cc12)OCCO3 (stereo not given)       melting point    207 to 209 °C

---

Recorded measurements of melting point, one per entry
ATTRIBUTE MEASURED: melting point

> print(dat)
                                    compound  endpoint.result
 1                 COc1ccc(Cn2cc[nH]c2=S)cc1           140 °C
 2  Cc1cc(OCC(F)(F)F)c(NC(=O)CBr)c(OCC(F)(F)F)n1    153 to 154 °C
 3  O=c1c2ccccc2nc(-c2ccccc2)n1CCN1CCC(c2c[nH]c3ccccc23)CC1           191 °C
 4              CCCOc1ccc(-c2ccc(N)nn2)cc1OC           147 °C
 5     O=C(O)C(=O)c1ccc(OCc2ccc3ccccc3c2)cc1    145 to 146 °C
 6  CCOC(=O)CC(=O)CSc1nc2cc(Cl)c(F)cc2c(O)c1C(=O)OCC    167 to 170 °C
 7  CC(=O)Nc1nc2c(s1)-c1nc(N3CCCC(CNC(=O)OC(C)(C)C)C3)ncc1CC2 (stereo not given)    250 to 255 °C
 8  COc1cc(OC)nc(C2(C#N)OC(=O)c3c(-c4cccs4)ccnc32)n1 (stereo not given)    187 to 188 °C
 9  O=C1CCCN1c1cc(-c2ccnc(Nc3cccc(Cl)c3)n2)ccn1    165 to 166 °C
10            COCCOc1ncc(Br)nc1-c1ccc(Cl)cc1      79 to 80 °C

---

Overview of recorded melting point for various compounds
ATTRIBUTE MEASURED: melting point

> print(dat)
                                   compound  attribute.measured  endpoint.result
1  CC(C)n1cc(-c2ncc(N)nc2-c2ccc(F)cc2)ccc1=O       melting point           258 °C
2  CC1(C)C=C(n2cncn2)c2cccc(OCc3c(Cl)ccc(S(=O)(=O)N4CCC[C@H]4C(=O)O)c3Cl)c2N1       melting point           146 °C
3  CS(=O)(=O)N1CCC[C@@H]1[C@H](CS(=O)(=O)c1ccc(Oc2ccc(OC(F)(F)F)cc2)cc1)N(O)C=O       melting point    89.6 to 93 °C
4  CC(C)CC(C(=O)O)c1cc(Cl)c(-c2ccc(Cl)c(Cl)c2)c(OCC2CC2)c1 (centres undefined)       melting point    118 to 119 °C
5  CCOC(=O)c1c(C)nc(N(C)N)c([N+](=O)[O-])c1Cl       melting point    159 to 161 °C
6                 Oc1ccc(Oc2ncc(Cl)cc2F)cc1       melting point      90 to 92 °C
7            N#Cc1ccc(Oc2ccc(C#N)cc2C#N)cc1       melting point    222 to 223 °C
8  COC(=O)c1cccc(Oc2ccc(NC(=O)c3ccc([N+](=O)[O-])cc3Br)cc2NC(=O)c2ccc([N+](=O)[O-])cc2Br)c1C(=O)OC       melting point    138 to 142 °C
9  NC1C(=O)N2C1SC1(CCOCC1)C2C(=O)O (centres undefined)       melting point    189 to 192 °C

---

ATTRIBUTE MEASURED: melting point

> print(dat)
                                    molecule  attribute.measured  endpoint.result
 1    CCCCCc1ccc(OC(=O)c2ccc(OCC)c(F)c2F)cc1       melting point            61 °C
 2       COc1cccc2c1[nH]c(=O)n1c(=O)[nH]nc21       melting point    308 to 310 °C
 3     Cc1ccnn1-c1ccc(NC(=O)c2ccc(Cl)cc2)cc1       melting point    189 to 191 °C
 4  COc1ccc(C2(C#Cc3ccnc(N)n3)CCC(=O)CC2)cc1OC1CCCC1       melting point      68 to 70 °C
 5  Cc1cn([C@@H]2C[C@H](O)[C@@H](O)[C@H]2O)c(=O)[nH]c1=O (racemic)       melting point    201 to 202 °C
 6  CCC1CN(c2nc(C)nc(NC)n2)c2ccccc21 (stereo unspecified)       melting point    168 to 170 °C
 7  C=C(C)C(C(=O)OCC(Cl)(Cl)Cl)N1C(=O)C(NC(=O)Cc2ccccc2)C1SSc1nc2ccccc2s1 (stereo unspecified)       melting point    133 to 134 °C
 8      CON1C(C)(C)CC(OC(=O)c2ccccc2)CC1(C)C       melting point      67 to 68 °C
 9  Cc1cccc2c1C=Cc1ccccc1C2(C)O (stereo unspecified)       melting point    107 to 109 °C
10  CN(C)Cc1cccc(-c2[nH]c3cccc4c3c2CCNC4=O)c1       melting point    222 to 225 °C
11  Cn1cc(C2=C(c3c4n(c5ccccc35)CCN(C(=O)CNC(=O)C(F)(F)F)C4)C(=O)NC2=O)c2ccccc21       melting point    170 to 172 °C
12        COC(=O)CCCC(=O)c1ccc(CCNC(C)=O)cc1       melting point    107 to 108 °C
13  C[C@@H]1N=C(c2ccccc2Cl)c2cc(N)ccc2N(C)C1=O       melting point           221 °C
14        Cc1ccc2nc(-c3cccc(Cl)c3)oc(=O)c2c1       melting point    160 to 162 °C
15  CCOc1ccc(CCN(C(=O)O)C(=O)[C@H](C)NC(C)=O)cc1OCC       melting point      84 to 86 °C
16  Cc1cc(Cn2nnc(C(N)=O)c2N)cc(Cl)c1C(=O)c1ccc(C(F)(F)F)cc1       melting point    201 to 202 °C
17  CCCCOc1cc(C(=O)O)cc([N+](=O)[O-])c1C(=O)c1ccc(Cl)cc1       melting point    180 to 182 °C
18     O=C1NN=C(CCc2ccccc2)c2c[nH]c3cccc1c23       melting point    182 to 184 °C
19  O=C(NCC(=O)C(F)(F)F)c1cnc(OCC(F)(F)F)c(-c2ccc(Cl)c(Cl)c2)c1       melting point    122 to 124 °C
20  OCCN1CCN(c2cc(Sc3ccc(Cl)cc3)nc(-c3ccccc3)n2)CC1       melting point    118 to 120 °C
21  O=C(O)c1ccc(-c2ccc(-c3ccc(C(F)(F)F)cc3)o2)cc1       melting point    270 to 271 °C
22                  Nc1nc(F)c(OC(F)F)c(Cl)n1       melting point      77 to 80 °C
23        OCCC#Cc1ccc2c(-c3ccc(Cl)cc3)nsc2c1       melting point    128 to 129 °C
24             O=C(NCCc1ccc(O)cc1)OCc1ccccc1       melting point      96 to 98 °C
25  CCC(CC)OC(=O)c1ccc(C(=O)NS(=O)(=O)c2cccc(C(=O)NCCc3ccccc3)c2)cn1       melting point    189 to 191 °C
26  Cc1cc(Br)cnc1CCCNc1ncc(Cc2cccnc2)cc1[N+](=O)[O-]       melting point    105 to 106 °C
27          COc1ccc2c(c1)C(CCCCNC(C)=O)=CCC2       melting point      79 to 81 °C
28  Cc1ccc(S(=O)(=O)C(CCl)Sc2ccc(Br)cc2)cc1 (stereo unspecified)       melting point    82.5 to 84 °C
29          CCOC(=O)c1cn2c(-c3ccccc3)cccc2n1       melting point    123 to 124 °C
30  Cn1cc(C(=O)NCC(=O)NCC2(O)CCC2)c(C(F)(F)F)n1       melting point           210 °C
31  Cc1ccc(S(=O)(=O)N(C)c2ccc([N+](=O)[O-])cc2C)cc1       melting point    103 to 104 °C
32  O=C1C(=O)N(CCCCN2CCN(C(c3ccccc3)c3ccccc3)CC2)c2ccc(Br)cc21       melting point    132 to 133 °C
33  Cc1cc(C(=O)N2Cc3cccn3Cc3ccccc32)ccc1NC(=O)c1ccccc1C       melting point    125 to 130 °C
34  COC(=O)c1c(Cl)cc(Cl)cc1NC(=O)CSc1ccc(NC(=S)NCc2ccccc2)cc1       melting point    152 to 155 °C
35              CC(C)Nc1nc2cc(F)c(F)cc2[nH]1       melting point    188 to 189 °C
36                      CNS(=O)(=O)Oc1ccccc1       melting point      43 to 45 °C
37  O=C1N(Cc2noc(C(F)(F)F)n2)c2ccccc2C12COc1cc3c(cc12)OCCO3 (stereo unspecified)       melting point    159 to 160 °C
38        CCCSc1sc(C(N)=O)c2c1-c1[nH]ncc1CC2       melting point    163 to 164 °C
39  CN(C)CCCOc1ccc(-c2nnc(CSCCOc3ccccc3)s2)cc1       melting point      72 to 73 °C
40  CCOc1ccccc1C(=O)SSc1ccc([N+](=O)[O-])cc1C(Cl)(Cl)Cl       melting point      79 to 80 °C
41                 Cc1ccc2c(-c3ccccc3)onc2c1       melting point          77.8 °C

Sourced from a melting point compilation (Tetko et al.; mined from patent text by program, amines drawn as free bases though some values may be those of a salt)
